Where these numbers come from: PubChem BioAssay

# assay_system: L-lactate dehydrogenase (Plasmodium falciparum (isolate CDC / Honduras)) (UniProt Q27743)
# Sequence (Q27743 whole entry, looked up): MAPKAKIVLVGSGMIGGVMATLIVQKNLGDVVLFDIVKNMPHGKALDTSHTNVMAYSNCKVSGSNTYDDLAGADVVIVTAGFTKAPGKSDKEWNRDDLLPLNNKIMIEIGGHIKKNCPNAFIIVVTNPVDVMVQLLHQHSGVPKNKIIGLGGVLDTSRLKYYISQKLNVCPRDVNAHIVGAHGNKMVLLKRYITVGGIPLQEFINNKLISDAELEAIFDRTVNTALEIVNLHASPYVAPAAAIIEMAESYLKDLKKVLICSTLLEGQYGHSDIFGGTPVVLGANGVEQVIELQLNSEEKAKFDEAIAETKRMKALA
# method_summary: PfLDH activity inhibition – cell lysate, 3D7 strain, counter-screen for P. falciparum growth inhibition project (AID 2304);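 also: 0% = vehicle and 100% = reference inhibitor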
# condition_notes: P. falciparum 3D7 crude extract, LDH APAD/NBT absorbance; at 2 µM; stronger effect = higher value
attribute_measured: inhibition (%)
Express your answer in %, writing the number without its unit.

Recorded inhibition, per entry:
• O=C(c1ccccc1)N(Cc1ccccc1-c1ccc(CNCCc2ccccc2)cc1)C1CCN(Cc2ccccc2)CC1 = -7
• CCn1c(-c2nonc2N)nc2c(-c3cc4ccccc4s3)ncc(C(=O)N3CCC(N)C3)c21 (centres undefined) = 5
• Cc1noc(C)c1-c1cccc(CNCc2ccc(-c3cccc(-c4nc5ccc(F)cc5[nH]4)c3)cc2)c1 = 4
• O=c1cc(NCCCNCc2ccc(Cl)c(Cl)c2)[nH]c2ccc(C(F)(F)F)cc12 = -5
• CCN(CC)CCCC(C)Nc1ccnc2cc(C#N)ccc12 (centres undefined) = -1

Look at this compound and give its reported inhibition. CCCCCCCN1CC[C@H](CC(=O)Nc2ccnc3ccc(OC)cc23)[C@@H](CC)C1
-4

Continue with COc1ccc2c(OC)cccc2c1CNCCCCCCNCc1c(OC)ccc2c(OC)cccc12
-5

###

This section presents compounds with their documented inhibition values.
# assay_system: L-lactate dehydrogenase (Plasmodium falciparum (isolate CDC / Honduras)) (UniProt Q27743)
# method_summary: PfLDH activity inhibition – cell lysate, 3D7 strain, counter-screen for P. falciparum growth inhibition project (AID 2304);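 also: 0% = vehicle and 100% = reference inhibitor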
# condition_notes: P. falciparum 3D7 crude extract, LDH APAD/NBT absorbance; at 2 µM; stronger effect = higher value
Write the value in % as a bare number.

- Oc1ccc(CCNCCCCCCNCCc2ccc(Cl)c(Cl)c2)cc1O: -1
- COc1cc2c(cc1OC)C(C(=O)Nc1cc(OC)c(OC)c(OC)c1)C(c1ccc(SC)cc1)N(C)C2=O (configuration not stated): 2
- CC1CCCN(C(=O)C(C)Nc2cc(Cl)ccc2N2CCOCC2)C1 (configuration not stated): -5
- CCC1=C(C[C@H]2NCCc3cc(OC)c(OC)cc32)C[C@H]2c3cc(OC)c(OC)cc3CCN2C1: -2
- CC(=O)Nc1ccc2[nH]cc(C3CCN(CC4CCC(NC(=O)/C=C/c5ccc(Cl)c(Cl)c5)CC4)CC3)c2n1 (configuration not stated): -1

Given the entry CN1CCN(c2ccc3nc(-c4ccc5nc(-c6ccc([N+](=O)[O-])c(N)c6)[nH]c5c4)[nH]c3c2)CC1 , what inhibition was observed with L-lactate dehydrogenase (Plasmodium falciparum (isolate CDC / Honduras)) (UniProt Q27743)?
-7

How about this compound: O=C(Cn1c(CCc2cccc(F)c2F)nc(=O)c2ccccc21)N(CCCN1CCCCC1)Cc1ccc(-c2ccc(C(F)(F)F)cc2)cc1
-2

###

# method_summary: inhibitors of polyQ protein aggregation (AID 1604)
# condition_notes: polyglutamine-induced protein aggregation inhibition assay; stronger effect = higher value; concentration not given here
attribute_measured: inhibition of aggregation (%)
Dear colleague, please return just the value in %, with no unit written.

// solved cases for inhibition of aggregation follow
• O=c1[nH]c(=O)n(C2C[C@@H](O)[C@@H](CO)O2)cc1F (some centres not stated) = 28.2
• C[C@@H]1CC2C3CCC4=CC(=O)C=C[C@]4(C)[C@@]3(F)[C@@H](O)C[C@]2(C)[C@@]1(O)C(=O)COP(=O)(O)O (some centres not stated) = 70.1
• C#C[C@]1(O)CCC2C3CCC4=Cc5oncc5C[C@]4(C)C3CC[C@@]21C (some centres not stated) = 69.1
• CO[C@H]1/C=C/O[C@@]2(C)Oc3c(C)c(O)c4c(O)c(c(C=NN5CCN(C)CC5)c(O)c4c3C2=O)NC(=O)/C(C)=C\C=C\C(C)[C@H](O)[C@@H](C)[C@@H](O)[C@@H](C)[C@@H](OC(C)=O)[C@@H]1C (some centres not stated) = 83.1

State the recorded inhibition of aggregation for this entry: CCN1CCN(C(=O)NC(C(=O)N[C@@H]2C(=O)N3[C@@H]2SC(C)(C)[C@@H]3C(=O)O)c2ccccc2)C(=O)C1=O (some centres not stated)
57.7

Field entry: CC[C@@H](C(=O)[C@@H](C)[C@@H](O)[C@H](C)[C@@H]1O[C@@H]([C@@H](CC)C(=O)O)CC[C@@H]1C)[C@H]1OC2(C=C[C@@H](O)[C@]3(CC[C@@](C)([C@H]4CC[C@](O)(CC)[C@H](C)O4)O3)O2)[C@H](C)C[C@@H]1C (some centres not stated)
61.1

Follow-up item: CC(=O)[C@H]1CCC2C3CCC4=CC(=O)CC[C@]4(C)C3CC[C@@]21C (some centres not stated)
84.5
